TEAD4 Inh (palmitoylation) overview
assayed-system: TEAD4 (Homo sapiens)
Sequence (Q15561 whole entry): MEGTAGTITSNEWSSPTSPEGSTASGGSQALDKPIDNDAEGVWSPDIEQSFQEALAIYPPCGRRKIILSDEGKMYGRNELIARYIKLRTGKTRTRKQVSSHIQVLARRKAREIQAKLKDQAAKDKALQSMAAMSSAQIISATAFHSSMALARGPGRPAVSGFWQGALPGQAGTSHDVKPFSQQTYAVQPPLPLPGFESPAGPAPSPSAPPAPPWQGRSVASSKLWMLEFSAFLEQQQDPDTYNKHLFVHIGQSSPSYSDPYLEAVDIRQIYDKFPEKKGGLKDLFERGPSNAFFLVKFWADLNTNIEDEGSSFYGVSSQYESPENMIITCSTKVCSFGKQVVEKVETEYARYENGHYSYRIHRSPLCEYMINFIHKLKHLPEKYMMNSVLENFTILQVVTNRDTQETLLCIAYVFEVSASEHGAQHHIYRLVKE
measurement-protocol: Palmitoylation assay, TEAD4 (HEK293T cells)
Type: cell-based
Design: unspecified tag; expressed in transfected cells; host or cells: HEK293T
protocol-conditions: 3 um compound, 24 hours
Number in %, nothing else.

For C=CC(=O)N1CC(/C=C/c2cc(C(F)(F)F)on2)C1 , what is its reported TEAD4 Inh (palmitoylation)?
33

Consider next the compound C=CC(=O)N1CC(/C=C/c2ccc(C(F)(F)F)cc2)C1 in the same way.
80

Consider next the compound C=CC(=O)N1C[C@@H](C)[C@H](/C=C/c2ccc(C(F)(F)F)cc2)C1 (stereo in doubt) in the same way.
18

Consider next the compound C=CC(=O)N1CC[C@H](/C=C/c2ccc(C(F)(F)F)cc2)C1 (single isomer, unassigned) in the same way.
52

Consider next the compound C=CC(=O)N1C[C@@H](/C=C/c2ccc(C(F)(F)F)cc2)[C@H](Nc2ncccn2)C1 (single isomer, unassigned) in the same way.
52

Consider next the compound C=CC(=O)N1CCC(C#Cc2ccc(C(F)(F)F)cc2)C1 (stereo not drawn) in the same way.
71
